- target.entity: UniProt O42275
- Sequence (O42275 whole entry): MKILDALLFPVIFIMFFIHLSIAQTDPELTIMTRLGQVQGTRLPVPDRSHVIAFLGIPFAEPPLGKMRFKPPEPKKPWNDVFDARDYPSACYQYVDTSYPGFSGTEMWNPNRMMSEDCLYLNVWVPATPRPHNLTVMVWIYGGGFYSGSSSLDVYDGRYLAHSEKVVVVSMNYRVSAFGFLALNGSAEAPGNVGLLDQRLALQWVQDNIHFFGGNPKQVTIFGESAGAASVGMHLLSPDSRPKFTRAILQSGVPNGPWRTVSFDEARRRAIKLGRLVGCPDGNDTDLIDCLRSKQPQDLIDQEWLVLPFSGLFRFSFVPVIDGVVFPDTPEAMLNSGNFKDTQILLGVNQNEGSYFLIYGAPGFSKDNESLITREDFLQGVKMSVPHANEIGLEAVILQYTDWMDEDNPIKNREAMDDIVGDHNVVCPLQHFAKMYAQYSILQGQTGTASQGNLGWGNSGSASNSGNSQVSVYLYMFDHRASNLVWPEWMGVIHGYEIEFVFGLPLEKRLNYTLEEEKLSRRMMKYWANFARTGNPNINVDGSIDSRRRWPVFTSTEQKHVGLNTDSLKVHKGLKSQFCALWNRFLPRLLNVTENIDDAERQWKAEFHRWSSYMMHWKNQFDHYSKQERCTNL
- experimental.protocol: Competitive inhibition of electric eel AChE using acetylthiocholine iodide as substrate by Lineweaver-Burk plot analysis
One threshold, 30 µM, splits the recorded Ki values: lower ones are 1, equal or higher ones are 0.

Previously resolved entries follow.
[[record]]
smiles_representation = "COc1cc(/C=N/NC(=O)Nc2ccncc2)ccc1O"
classification = 1

[[record]]
smiles_representation = "O=C(N/N=C/c1ccc(O)cc1O)Nc1ccncc1"
classification = 1

[[record]]
smiles_representation = "O=C(N/N=C/c1ccccc1O)Nc1ccncc1"
classification = 1


Ask: Problem: For the compound O=C(N/N=C/c1ccccc1)Nc1ccncc1 , is Ki under 30 µM?
Reply: 0

Ask: Try COc1ccc(/C=N/NC(=O)Nc2ccncc2)cc1OC next.
Reply: 1

Ask: Try COc1ccc(/C=N/NC(=O)Nc2ccncc2)cc1 next.
Reply: 0
